# procedure_summary: Displacement of fluorescein-labeled moenomycin from transglycosylase at 100 uM after 30 mins by fluorescence anisotropy binding assay
endpoint_name: inhibition (%)
Lab book: enter the figure in %, no units written.

Tell me inhibition reported for `Cc1ccc(-c2cc(C(=O)Oc3cccc(C)c3)no2)cc1`
96

====

# procedure_summary: Inhibition of transglycosylase assessed as inhibition of NBD- labelled lipid II polymerization
endpoint_name: IC90

Check out these entries, answers already filled in.
O=C(Nc1cc(S(=O)(=O)c2ccc(Cl)cc2)ccc1Cl)c1cc(I)cc(I)c1O | 100 µM
O=C(c1ccc(Cl)cc1)c1ccc(NC(=O)c2cc(Br)cc(Br)c2O)cc1Cl | 100 µM
Cc1ccc(C(C)C)cc1Oc1ccc(Cl)cc1NC(=O)c1cc(Cl)cc(Br)c1O | 50 µM
O=C(Nc1ccc(Oc2ccc3ccccc3c2Cl)c(Cl)c1)c1cc(Cl)cc(Br)c1O | 100 µM
O=C(Nc1ccc(Oc2ccc(Cl)cc2)c(Cl)c1)c1cc(Br)cc(Br)c1O | 100 µM

Read the next record carefully.
Return reported IC90. Input compound: `O=C(Nc1cc(Cl)ccc1Oc1cccc2c(Br)cccc12)c1cc(Cl)cc(Br)c1O`
100 µM
